TGT: UniProtKB Q12809
EXPERIMENTAL PROTOCOL: cell-based
MEASUREMENT PARAMETERS: (-LOG10(IC50), µM)
Structures can show the parent of a compound that is named as a salt.
Quick rule for you: IC50 under 20 µM gets YES, anything else gets NO.

COc1ccc2c(c1OC)C(=O)O[C@@H]2[C@H]1c2cc3c(cc2CCN1C)OCO3 [Hydrastine] :: NO
CCCCCCCCCCCCCCNCCO :: YES
CCOP(=S)(OCC)Oc1ccc2c(C)c(Cl)c(=O)oc2c1 :: NO

Ask: Criterion: IC50 strictly below 20 µM. Is it met by CN(C)C(=O)C1(N2CCCCC2)CCN(CC[C@@]2(c3ccc(Cl)c(Cl)c3)CN(C(=O)c3ccccc3)CCO2)CC1 [SSR 241586 HCl] ?
Reply: YES

Ask: Criterion: IC50 strictly below 20 µM. Is it met by "O=C1NCN(c2ccccc2)C12CCN(CCCOc1ccc(F)cc1)CC2" ?
Reply: YES

Ask: Criterion: IC50 strictly below 20 µM. Is it met by O=P(OCC(Br)CBr)(OCC(Br)CBr)OCC(Br)CBr (stereo not drawn) [Tris(2,3-dibromopropyl) phosphate] ?
Reply: YES

Ask: Criterion: IC50 strictly below 20 µM. Is it met by "CC(=O)OCCN(CCOC(C)=O)c1ccc(/N=N/c2ccc([N+](=O)[O-])cc2C#N)cc1" ?
Reply: NO

Ask: Criterion: IC50 strictly below 20 µM. Is it met by CCN(CC)Cc1nccn1-c1ccc([N+](=O)[O-])cc1C(=O)c1ccccc1Cl [Nizofenone fumarate] ?
Reply: YES

Ask: Criterion: IC50 strictly below 20 µM. Is it met by "CCCCCCCCCCCCCCCCCCNC(=O)OC1CCN(C(=O)OC[C@H](COC(=O)N(Cc2cccc[n+]2CC)C(=O)c2ccccc2OC)OC)CC1" ?
Reply: YES

Ask: Criterion: IC50 strictly below 20 µM. Is it met by "CC(C)Nc1cccnc1N1CCN(C(=O)c2cc3cc(NS(C)(=O)=O)ccc3[nH]2)CC1" ?
Reply: YES

Ask: Criterion: IC50 strictly below 20 µM. Is it met by "CCCCCCn1cc[n+](C)c1" ?
Reply: NO

Ask: Criterion: IC50 strictly below 20 µM. Is it met by "CCCOc1ccc(S(=O)(=O)N2CCN(CC)CC2)cc1-c1nc2c(CC)n(Cc3ccccn3)nc2c(=O)[nH]1" ?
Reply: NO

###

TGT: hERG (Homo sapiens)
Sequence (Q12809 whole entry): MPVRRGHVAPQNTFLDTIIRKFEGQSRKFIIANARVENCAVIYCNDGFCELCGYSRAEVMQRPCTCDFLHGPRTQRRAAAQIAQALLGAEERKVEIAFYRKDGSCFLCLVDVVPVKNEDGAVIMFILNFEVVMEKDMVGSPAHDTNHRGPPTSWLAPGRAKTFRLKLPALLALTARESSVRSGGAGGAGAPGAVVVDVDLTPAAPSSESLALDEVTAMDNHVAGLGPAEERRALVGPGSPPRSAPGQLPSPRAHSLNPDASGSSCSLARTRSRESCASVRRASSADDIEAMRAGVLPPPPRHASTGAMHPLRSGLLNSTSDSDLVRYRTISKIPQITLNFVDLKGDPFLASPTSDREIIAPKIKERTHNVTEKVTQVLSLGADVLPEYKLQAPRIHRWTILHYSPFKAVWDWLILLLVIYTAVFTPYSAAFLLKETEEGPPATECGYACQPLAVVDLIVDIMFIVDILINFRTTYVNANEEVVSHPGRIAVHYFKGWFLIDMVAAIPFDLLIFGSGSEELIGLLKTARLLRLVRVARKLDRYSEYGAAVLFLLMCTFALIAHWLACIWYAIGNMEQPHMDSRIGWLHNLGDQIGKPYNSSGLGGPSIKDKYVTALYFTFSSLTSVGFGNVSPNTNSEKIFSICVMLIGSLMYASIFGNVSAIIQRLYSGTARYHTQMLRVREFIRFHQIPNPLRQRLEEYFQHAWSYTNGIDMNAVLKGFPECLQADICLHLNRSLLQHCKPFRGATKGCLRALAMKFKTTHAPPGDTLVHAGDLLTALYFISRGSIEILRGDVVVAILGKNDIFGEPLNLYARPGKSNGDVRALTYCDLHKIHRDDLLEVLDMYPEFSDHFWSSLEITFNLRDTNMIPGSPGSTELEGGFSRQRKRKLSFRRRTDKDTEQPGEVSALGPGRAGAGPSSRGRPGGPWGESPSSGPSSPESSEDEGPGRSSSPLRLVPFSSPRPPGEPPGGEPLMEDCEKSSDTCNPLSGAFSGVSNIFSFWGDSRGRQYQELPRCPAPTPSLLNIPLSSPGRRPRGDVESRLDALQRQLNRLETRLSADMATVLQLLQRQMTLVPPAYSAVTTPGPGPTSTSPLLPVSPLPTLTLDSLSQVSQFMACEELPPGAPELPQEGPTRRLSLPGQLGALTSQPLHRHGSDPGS
EXPERIMENTAL PROTOCOL: cell-based
MEASUREMENT PARAMETERS: (-LOG10(IC50), µM)
Counter-ions that a name gives are not always drawn.
Quick rule for you: IC50 under 20 µM gets t, anything else gets f.

Solved cases (5 shown):
CC(=O)c1ccc2c(c1)N(CCCN(C)C)c1ccccc1S2 [Acetopromazine maleate] :: t
CC1(C)CCC(Cc2ccc(Cl)cc2)C1(O)Cn1cncn1 (centres unmarked) [Metconazole] :: f
CCCCOC(=O)[C@@H](C)Oc1ccc(Oc2ccc(C#N)cc2F)cc1 [Cyhalofop-butyl] :: t
CCN1CCN(c2cc(-c3ccc(F)cc3)c3c(n2)CCCCCC3)CC1 [Blonanserin] :: t
O=C(N[C@H](c1ccccc1)[C@@H]1CN2CCC1CC2)c1c(Cl)ccc(C(F)(F)F)c1Cl [SSR 103800] :: f

Ask: Criterion: IC50 strictly below 20 µM. Is it met by CCOCCn1c(C2CCN(CCc3ccc(C(C)(C)C(=O)O)cc3)CC2)nc2ccccc21 [Bilastine] ?
Reply: t

Ask: Criterion: IC50 strictly below 20 µM. Is it met by CCOc1cc(Oc2ccc(C(F)(F)F)cc2Cl)ccc1[N+](=O)[O-] [Oxyfluorfen] ?
Reply: f

Ask: Criterion: IC50 strictly below 20 µM. Is it met by CCOC(=O)c1c(N)sc2c1CCN(Cc1ccccc1)C2 [Tinoridine] ?
Reply: f

Ask: Criterion: IC50 strictly below 20 µM. Is it met by O=S1OC[C@@H]2[C@H](CO1)[C@]1(Cl)C(Cl)=C(Cl)[C@@]2(Cl)C1(Cl)Cl (some centres unmarked) [Endosulfan I] ?
Reply: f

Ask: Criterion: IC50 strictly below 20 µM. Is it met by CCOC(=O)COc1cc(-n2ncc(C(F)(F)F)c(C)c2=O)c(F)cc1Cl [Flufenpyr-ethyl] ?
Reply: f

Ask: Criterion: IC50 strictly below 20 µM. Is it met by CCOC(=O)c1nc(C(Cl)(Cl)Cl)n(-c2ccc(Cl)cc2Cl)n1 [Fenchlorazole-ethyl] ?
Reply: f

Ask: Criterion: IC50 strictly below 20 µM. Is it met by C[C@]12CC[C@H]3[C@@H](CCC4=CC(=O)CC[C@@H]43)[C@@H]1CC[C@@H]2OC(=O)CCC1CCCCC1 [Nandrolone cyclohexylpropionate] ?
Reply: t

Ask: Criterion: IC50 strictly below 20 µM. Is it met by CC(CCc1ccccc1)NCC(O)c1ccc(O)c(C(N)=O)c1 (centres unmarked) [Labetalol] ?
Reply: t

Values compiled from paper PMC8869358.
